study_conditions: in tetrachloromethane, 338.05 K
reported_endpoint: solubility (mole fraction)
Answers are plain numbers.

Inquiry: Report measured solubility (mole fraction); entry is O=C(O)COc1ccc(Cl)cc1Cl
Reply text: 0.00497

----------
study_conditions: in toluene, 294.15 K
reported_endpoint: solubility (mole fraction)
Give bare numbers.

Inquiry: Report measured solubility (mole fraction); entry is O=C(O)COc1ccc(Cl)cc1Cl
Reply text: 0.00118

----------
study_conditions: in tetrachloromethane, 313.55 K
reported_endpoint: solubility (mole fraction)
Give bare numbers.

Inquiry: Report measured solubility (mole fraction); entry is O=C(O)COc1ccc(Cl)cc1Cl
Reply text: 0.000193

----------
study_conditions: in toluene, 335.35 K
reported_endpoint: solubility (mole fraction)
Give bare numbers.

Inquiry: Report measured solubility (mole fraction); entry is O=C(O)COc1ccc(Cl)cc1Cl
Reply text: 0.0207

These measurements were taken from BigSolDB 2.1.
